Recorded Response, one value per entry.
# assayedTarget: T1, ΔhASIC1a-nanodiscs (Homo sapiens, UniProt P78348)
# T1 construct: A truncated ASIC1a (amino acids 13-464; ΔhASIC1a) was overexpressed and purified; made in house; host or cells: HEK293F (BacMam baculovirus)
# T1 sequence (P78348 13-464, stated change not applied): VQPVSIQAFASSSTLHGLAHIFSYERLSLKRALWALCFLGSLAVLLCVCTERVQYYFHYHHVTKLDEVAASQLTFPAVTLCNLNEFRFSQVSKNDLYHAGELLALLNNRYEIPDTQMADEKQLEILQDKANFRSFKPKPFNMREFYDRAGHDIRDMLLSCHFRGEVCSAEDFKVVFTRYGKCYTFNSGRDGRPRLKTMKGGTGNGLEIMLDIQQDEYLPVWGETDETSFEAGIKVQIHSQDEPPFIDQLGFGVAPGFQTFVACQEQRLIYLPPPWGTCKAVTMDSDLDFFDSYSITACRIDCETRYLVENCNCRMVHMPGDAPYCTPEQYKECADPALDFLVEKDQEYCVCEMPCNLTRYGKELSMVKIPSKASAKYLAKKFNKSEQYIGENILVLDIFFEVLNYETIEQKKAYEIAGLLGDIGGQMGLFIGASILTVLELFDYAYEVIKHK
# T1 sequence (P02647 68-267 partner limits assumed): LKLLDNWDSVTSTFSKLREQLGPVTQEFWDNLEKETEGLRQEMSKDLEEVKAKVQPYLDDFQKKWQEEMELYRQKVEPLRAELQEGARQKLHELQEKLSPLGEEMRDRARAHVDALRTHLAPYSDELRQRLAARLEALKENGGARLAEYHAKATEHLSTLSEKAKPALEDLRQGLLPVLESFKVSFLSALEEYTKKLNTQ
# testSummary: Binding affinities of scFv antibodies to ΔhASIC1a-nanodiscs, Octet system
# conditionDescription: scFv format; Conc. 500 nM; Octet system
Answer as a number with no unit attached.

ASC01: anti-ASIC1a scFv antibody, VH SEQ ID NO: 2 and VL SEQ ID NO: 7 (antibody, V domains shown, scFv linker; Amino acid sequence of ASC01 VH; Amino acid sequence of ASC01 VL) VH: QVQLVETGPRLVKPSQTLSLTCTVSGGSINSGGYYWGWIRQHSGKGLEWIGYIYPRGSSYYNPSLRSRVTISADTSRNNFSLKLTSVTAADTAVYYCARVGYTGAFDIWGQGTLVTVSS VL: QAVLTQPSSVSAAPGQKVTISCSGGNSNIGNNYVSWYQQLPGTAPKLLIYDNNKRPSGIPDRFSGSKSGTAATLGITGLQTGDEADYYCGTWDSSLSAGVFGEGTQLTVLG; 0.431

Task item: Input ASC05: anti-ASIC1a scFv antibody, VH SEQ ID NO: 42 and VL SEQ ID NO: 47 (antibody, V domains shown, scFv linker; Amino acid sequence of ASC05 VH; Amino acid sequence of ASC05 VL) VH: QVQLVESGAEVKKPGASVRVSCKASGYSFTNYYMHWVRQAPGQGLEWMGIISPSGRSTSFAQKFQGRVTMTRDTSTSTVYMHLSSLRSDDTAVYYCARGAWSTDAFDIWGQGTTVTVSS VL: QSALTQPASVSGSPGQSITISCTGTSSDVGSYNLVSWYQQHPGKAPKLMIYEGSKRPSGVSNRFSGSKSGNTASLTISGLQAEDEAEYHCSSFTGKGYVFGTGTKLTVLGGLG , output reported Response.
Reply: 0.5016

Task item: Tell me Response reported for ASC02: anti-ASIC1a scFv antibody, VH SEQ ID NO: 12 and VL SEQ ID NO: 17 (antibody, V domains shown, scFv linker; Amino acid sequence of ASC02 VH; Amino acid sequence of ASC02 VL) VH: QVQLVQSGAEVKKPGASMKVSCTTSGYTVTGYYIHWLRQAPGQGFEWMGWINPNLGVTNYAQKFQGRVSMTRDPSIKTAYLELSGLRSDDTAMYYCARASTGGIFYDYWGQGTLVTVSS VL: NFMLTQPHSMSESPGKTVTISCTRSSGNIASNYVQWYQQRPGSSPTTVIYDDNQRPSGVPDRFSGSIDSISNSASLTISGLKTEDEADYYCQSYDSSSVIFGGGTKLTVLG
Reply: 0.2888
